Origin of measurements: paper PMC4907692

# System under test: full-length GFP-tagged TRPV1 (Rattus norvegicus, UniProt O35433)
# Construct: Smooth function for full-length GFP-tagged TRPV1 is a fit of the Hill equation; expressed in transfected cells; host or cells: Saccharomyces cerevisiae (intact cells)
# Sequence (O35433 whole entry): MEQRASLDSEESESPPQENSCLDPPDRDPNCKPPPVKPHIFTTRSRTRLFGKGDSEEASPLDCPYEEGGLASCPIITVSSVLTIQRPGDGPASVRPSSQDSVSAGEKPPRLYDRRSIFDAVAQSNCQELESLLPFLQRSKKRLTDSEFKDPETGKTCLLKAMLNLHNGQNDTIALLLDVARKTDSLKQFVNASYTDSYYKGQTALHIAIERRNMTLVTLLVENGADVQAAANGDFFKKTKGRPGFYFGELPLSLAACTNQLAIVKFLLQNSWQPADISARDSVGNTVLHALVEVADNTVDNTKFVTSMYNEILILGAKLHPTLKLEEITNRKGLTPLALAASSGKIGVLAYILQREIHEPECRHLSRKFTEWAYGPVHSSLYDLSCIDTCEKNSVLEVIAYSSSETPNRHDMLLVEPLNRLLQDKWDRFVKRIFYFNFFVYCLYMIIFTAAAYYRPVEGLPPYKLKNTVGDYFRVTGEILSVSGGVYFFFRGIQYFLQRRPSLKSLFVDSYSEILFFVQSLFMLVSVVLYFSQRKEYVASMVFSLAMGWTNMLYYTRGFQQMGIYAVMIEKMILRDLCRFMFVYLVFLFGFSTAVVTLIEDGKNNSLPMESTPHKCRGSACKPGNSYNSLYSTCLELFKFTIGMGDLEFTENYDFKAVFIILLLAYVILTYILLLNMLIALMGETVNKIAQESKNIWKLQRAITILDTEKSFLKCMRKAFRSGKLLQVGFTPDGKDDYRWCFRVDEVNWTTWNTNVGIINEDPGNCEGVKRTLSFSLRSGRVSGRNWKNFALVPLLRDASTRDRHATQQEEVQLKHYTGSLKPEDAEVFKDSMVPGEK
# Test: 3H-RTx binding to intact S. cerevisiae cells expressing GFP-tagged TRPV1
# Condition label: 37°C, Figure 1E, read-out: Kd of 3H-RTx binding (Hill fit)
Recorded endpoint: Kd (nM)
Express your answer in nM, writing the number without its unit.

Prompt: May I ask what Kd has been recorded for C=C(C)[C@]12C[C@@H](C)[C@@]34O[C@](Cc5ccccc5)(O[C@@H]1[C@@H]3C=C(COC(=O)Cc1ccc(O)c(OC)c1)C[C@]1(O)C(=O)C(C)=C[C@@H]41)O2 [RTx, resiniferatoxin] ?
Response: 7

###

# System under test: TRPV1 Y511A (dual GFP- and His-tagged) (Rattus norvegicus, UniProt O35433, Y511A)
# Sequence (O35433 whole entry Y511A): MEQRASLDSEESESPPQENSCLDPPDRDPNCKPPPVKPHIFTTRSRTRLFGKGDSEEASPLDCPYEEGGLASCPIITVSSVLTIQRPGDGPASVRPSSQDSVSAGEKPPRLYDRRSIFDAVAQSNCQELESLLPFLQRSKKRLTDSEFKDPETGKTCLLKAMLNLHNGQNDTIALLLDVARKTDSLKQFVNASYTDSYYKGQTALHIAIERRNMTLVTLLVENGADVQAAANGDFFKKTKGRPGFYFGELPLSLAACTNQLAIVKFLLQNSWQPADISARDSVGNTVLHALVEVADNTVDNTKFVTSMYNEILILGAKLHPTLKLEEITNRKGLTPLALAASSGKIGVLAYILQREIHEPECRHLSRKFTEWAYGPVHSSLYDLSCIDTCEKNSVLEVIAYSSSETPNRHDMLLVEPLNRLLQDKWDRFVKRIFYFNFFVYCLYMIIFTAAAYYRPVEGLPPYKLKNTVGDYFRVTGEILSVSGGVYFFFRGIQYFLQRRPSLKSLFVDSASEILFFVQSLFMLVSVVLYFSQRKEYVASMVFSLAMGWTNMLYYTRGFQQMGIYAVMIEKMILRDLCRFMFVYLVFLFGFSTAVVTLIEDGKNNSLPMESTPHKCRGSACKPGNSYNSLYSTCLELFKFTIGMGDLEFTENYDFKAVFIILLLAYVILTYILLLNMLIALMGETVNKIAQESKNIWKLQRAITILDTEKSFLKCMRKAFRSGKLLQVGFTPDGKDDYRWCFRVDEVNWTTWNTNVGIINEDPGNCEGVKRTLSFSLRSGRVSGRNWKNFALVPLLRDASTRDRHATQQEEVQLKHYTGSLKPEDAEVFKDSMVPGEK
# Test: 3H-RTx binding to intact S. cerevisiae cells expressing TRPV1 Y511A
# Condition label: 37°C, Figure 1F, read-out: Kd of 3H-RTx binding (Hill fit)
pKd: −log10 of the molar value.
Recorded endpoint: pKd

Prompt: May I ask what pKd has been recorded for C=C(C)[C@]12C[C@@H](C)[C@@]34O[C@](Cc5ccccc5)(O[C@@H]1[C@@H]3C=C(COC(=O)Cc1ccc(O)c(OC)c1)C[C@]1(O)C(=O)C(C)=C[C@@H]41)O2 [RTx, resiniferatoxin] ?
Response: < 6.62

###

# System under test: 1D4-tagged WT TRPV2 (Rattus norvegicus, UniProt Q9WUD2)
# Sequence (Q9WUD2 1-761): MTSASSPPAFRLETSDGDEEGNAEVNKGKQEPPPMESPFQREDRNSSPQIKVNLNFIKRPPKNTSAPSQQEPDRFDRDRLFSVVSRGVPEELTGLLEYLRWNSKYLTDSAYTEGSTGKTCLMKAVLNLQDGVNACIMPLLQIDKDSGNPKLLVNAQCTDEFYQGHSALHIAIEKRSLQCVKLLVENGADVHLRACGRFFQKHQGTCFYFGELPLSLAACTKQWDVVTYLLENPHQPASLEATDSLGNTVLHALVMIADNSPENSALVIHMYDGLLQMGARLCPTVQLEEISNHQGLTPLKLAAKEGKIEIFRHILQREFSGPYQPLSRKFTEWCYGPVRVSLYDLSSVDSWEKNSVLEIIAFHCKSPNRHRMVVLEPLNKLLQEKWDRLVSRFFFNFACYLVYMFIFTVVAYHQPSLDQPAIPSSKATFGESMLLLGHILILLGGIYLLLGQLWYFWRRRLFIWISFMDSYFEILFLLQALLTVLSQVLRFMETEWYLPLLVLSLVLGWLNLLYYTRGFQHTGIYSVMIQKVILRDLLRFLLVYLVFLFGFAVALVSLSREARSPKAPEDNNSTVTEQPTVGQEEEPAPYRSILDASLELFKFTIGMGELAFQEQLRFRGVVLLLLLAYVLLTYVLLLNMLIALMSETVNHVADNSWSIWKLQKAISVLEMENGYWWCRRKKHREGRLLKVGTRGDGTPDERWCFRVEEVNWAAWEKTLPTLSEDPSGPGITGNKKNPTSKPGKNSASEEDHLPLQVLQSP
# Test: 3H-RTx binding to yeast membranes containing 1D4-tagged WT TRPV2
# Condition label: 37°C, read-out: Kd of 3H-RTx binding (Hill fit)
pKd: −log10 of the molar value.
Recorded endpoint: pKd

Prompt: May I ask what pKd has been recorded for C=C(C)[C@]12C[C@@H](C)[C@@]34O[C@](Cc5ccccc5)(O[C@@H]1[C@@H]3C=C(COC(=O)Cc1ccc(O)c(OC)c1)C[C@]1(O)C(=O)C(C)=C[C@@H]41)O2 ?
Response: < 6.70
